testTarget: AMPK
experimentNotes: AMPK activation, enzyme-linked immunosorbent assay
Format: biochemical
appliedConditions: Table 2, ELISA
So I've got a bunch of compounds here, and I need their EC50 values.

Example results:
| chemicalString | testTarget | EC50 |
| --- | --- | --- |
| O=C(NC1CCN(c2ccc(F)cc2)CC1)c1ccc2[nH]c3c(c2c1)CN(Cc1ccc(C(F)(F)F)cc1)CC3 | AMPK | < 0.5 µM |
| N#Cc1ccc(CN2CCC(NC(=O)c3ccc4[nH]c5c(c4c3)CN(Cc3ccccc3)CC5)CC2)cc1 | AMPK | 1 to 5 µM |
| O=C(NC1CCN(C(=O)c2ccc(C(F)(F)F)cc2)CC1)c1ccc2[nH]c3c(c2c1)CN(c1ccc(F)cc1)CC3 | AMPK | 10 to 50 µM |

For the 4 compounds below, give their EC50 values.
1. O=C(NC1CCN(Cc2ccc(C(F)(F)F)cc2)CC1)c1ccc2[nH]c3c(c2c1)CN(Cc1ccccc1)CC3
2. CC(C)(C)OC(=O)N1CCC(NC(=O)c2ccc3[nH]c4c(c3c2)CN(C(=O)OCc2ccccc2)CC4)CC1
3. N#Cc1cccc(S(=O)(=O)N2CCC(NC(=O)c3ccc4[nH]c5c(c4c3)CN(Cc3ccc(C(F)(F)F)cc3)CC5)CC2)c1
4. CC(C)(C)OC(=O)N1CCC(NC(=O)c2ccc3[nH]c4c(c3c2)CN(Cc2ccc(C(F)(F)F)cc2)CC4)CC1

["1 to 5 µM", "10 to 50 µM", "1 to 5 µM", "0.5 to 1 µM"]

###

So I've got a bunch of compounds here, and I need their pEC50 values.
testTarget: AMPK
experimentNotes: AMPK activation, enzyme-linked immunosorbent assay
Type: biochemical
appliedConditions: Table 4, ELISA
pEC50: −log10 of the molar value.

| chemicalString | pEC50 |
| --- | --- |
| O=C(NC1CCN(Cc2ccccc2)CC1)c1ccc2cc(OC3CCN(c4ccc(C(F)(F)F)cc4)CC3)ccc2c1 | 5.30 to 6.00 |

For the 2 compounds below, give their pEC50 values.
1. CC(C)(C)OC(=O)N1CCC(NC(=O)c2ccc3ccc(OC4CCN(c5ccc(C(F)(F)F)cc5)CC4)cc3c2)CC1
2. O=C(NC1CCN(Cc2ccccc2)CC1)c1ccc2cc(OC3CCN(Cc4ccc(C(F)(F)F)cc4)CC3)ccc2c1

5.30 to 6.00
> 6.30

For reference, reported pEC50 for "N#Cc1ccc(CN2CCC(Oc3ccc4cc(C(=O)NC5CCN(Cc6ccccc6)CC5)ccc4c3)CC2)cc1" stands at > 6.30

###

testTarget: AMPK
experimentNotes: AMPK activation, enzyme-linked immunosorbent assay
Format: biochemical
appliedConditions: Table 2, ELISA
Description: Compounds 1-54 were assayed for their ability to activate AMPK using an enzyme-linked immunosorbent assay. Compounds 55-62 of Table 1 were assayed for their ability to activate AMPK using an enzyme-linked immunosorbent assay. Compounds 63-66 of Table 1 were assayed for their ability to activate AMPK using an enzyme-linked immunosorbent assay. Compounds 67-71 of Table 1 were assayed for their ability to activate AMPK using an enzyme-linked immunosorbent assay. […]
reportedProperty: EC50

Example results:
| molecule | endpointResult |
| --- | --- |
| O=C(NC1CCN(C(=O)c2ccc(F)cc2)CC1)c1ccc2[nH]c3c(c2c1)CN(c1ccc(F)cc1)CC3 [Compound 39] | 10 to 50 µM |
| CC(C)(C)OC(=O)N1CCC(NC(=O)c2ccc3[nH]c4c(c3c2)CN(c2ccc(F)cc2)CC4)CC1 [Compound 38] | 10 to 50 µM |

For the 2 molecules below, give their EC50 values.
1. O=C(NC1CCN(Cc2cccnc2)CC1)c1ccc2[nH]c3c(c2c1)CN(Cc1ccc(C(F)(F)F)cc1)CC3 [Compound 11]
2. NC(=O)c1ccc(CN2CCc3[nH]c4ccc(C(=O)NC5CCN(C(=O)c6ccncc6)CC5)cc4c3C2)cc1 [Compound 46]

1: < 0.5 µM; 2: > 100 µM

###

testTarget: AMPK
experimentNotes: AMPK activation, enzyme-linked immunosorbent assay
Assay type: biochemical
appliedConditions: Table 2, ELISA
pEC50: −log10 of the molar value.
So I've got a bunch of compounds here, and I need their pEC50 values.

| chemicalString | endpointResult |
| --- | --- |
| O=C(NC1CCN(S(=O)(=O)c2cccc(C(F)(F)F)c2)CC1)c1ccc2[nH]c3c(c2c1)CN(Cc1ccc(C(F)(F)F)cc1)CC3 | 5.30 to 6.00 |
| CC(C)(C)OC(=O)N1CCC(NC(=O)c2ccc3[nH]c4c(c3c2)CN(Cc2ccc(C(N)=O)cc2)CC4)CC1 | < 4.00 |

Now consider a different compound.
For reference, reported pEC50 for "NC(=O)c1ccc(CN2CCc3[nH]c4ccc(C(=O)NC5CCN(Cc6ccc(C(F)(F)F)cc6)CC5)cc4c3C2)cc1" stands at 4.30 to 5.00

###

testTarget: AMPK
experimentNotes: AMPK activation, enzyme-linked immunosorbent assay
Format: biochemical
appliedConditions: Table 3, ELISA
So I've got a bunch of molecules here, and I need their EC50 values.

| chemicalString | EC50 |
| --- | --- |
| O=C(NC1CCN(Cc2ccccc2)CC1)c1ccc(CN2CCN(c3ccccn3)CC2)cc1 | 1000 to 10000 nM |
| N#Cc1ccc(CN2CCC(NC(=O)c3ccc(CN4CCN(Cc5ccccc5)CC4)cc3)CC2)cc1 | < 100 nM |
| O=C(NC1CCN(Cc2ccncc2)CC1)c1ccc(CN2CCN(Cc3ccccc3)CC2)cc1 | 100 to 500 nM |
| O=C(NC1CCN(Cc2cccnc2)CC1)c1ccc(CN2CCN(Cc3ccccc3)CC2)cc1 | 100 to 500 nM |
| O=C(NC1CCN(Cc2ccccc2)CC1)c1ccc(CN2CCN(CC3CCCCC3)CC2)cc1 | 1000 to 10000 nM |
| O=C(NC1CCN(Cc2ccc(C(F)(F)F)cc2)CC1)c1ccc(CN2CCN(Cc3ccccc3)CC2)cc1 | < 100 nM |

For the 2 molecules below, give their EC50 values.
1. O=C(NC1CCN(Cc2ccccc2)CC1)c1ccc(CN2CCN(c3ccc(C(F)(F)F)cn3)CC2)cc1
2. O=C(NC1CCN(Cc2ccccc2)CC1)c1ccc(CN2CCN(Cc3ccccc3)CC2)cc1

< 100 nM
< 100 nM

###

testTarget: AMPK
experimentNotes: AMPK activation, enzyme-linked immunosorbent assay
Format: biochemical
appliedConditions: Table 5, ELISA
pEC50: −log10 of the molar value.
So I've got a bunch of molecules here, and I need their pEC50 values.

Example results:
| molecule | testTarget | pEC50 |
| --- | --- | --- |
| O=C(NC1CCN(Cc2ccc(C(F)(F)F)cc2)CC1)c1cnc2ccc(OC3CCN(c4ccc(C(F)(F)F)cc4)CC3)cc2c1 [Compound 70] | AMPK | > 7.00 |
| N#Cc1ccc(CN2CCC(NC(=O)c3cnc4ccc(OC5CCN(c6ccc(C(F)(F)F)cc6)CC5)cc4c3)CC2)cc1 [Compound 69] | AMPK | > 7.00 |
| CC(C)(C)OC(=O)N1CCC(NC(=O)c2cnc3ccc(OC4CCN(c5ccc(C(F)(F)F)cc5)CC4)cc3c2)CC1 [Compound 67] | AMPK | 6.30 to 7.00 |

Now consider a different molecule.
GET /values?item= O=C(NC1CCNCC1)c1cnc2ccc(OC3CCN(c4ccc(C(F)(F)F)cc4)CC3)cc2c1 [Compound 68] &system= AMPK returns pEC50: < 5.30

###

testTarget: AMPK
experimentNotes: AMPK activation, enzyme-linked immunosorbent assay
Type: biochemical
appliedConditions: Table 2, ELISA
pEC50: −log10 of the molar value.
reportedProperty: pEC50

For the 6 compounds below, give their pEC50 values.
1. CC(=O)n1c2c(c3cc(C(=O)NC4CCN(Cc5cccnc5)CC4)ccc31)CN(Cc1ccc(C(F)(F)F)cc1)CC2 [Compound 20]
2. O=C(NC1CCN(Cc2ccc(C(F)(F)F)cc2)CC1)c1ccc2[nH]c3c(c2c1)CN(Cc1ccc(C(F)(F)F)cc1)CC3 [Compound 13]
3. O=C(NC1CCN(C(=O)c2ccncc2)CC1)c1ccc2[nH]c3c(c2c1)CN(Cc1ccc(C(F)(F)F)cc1)CC3 [Compound 51]
4. O=C(NC1CCN(Cc2ccc(C(F)(F)F)cc2)CC1)c1ccc2[nH]c3c(c2c1)CN(Cc1ccc(F)cc1)CC3 [Compound 10]
5. O=C(NC1CCN(Cc2cccnc2)CC1)c1ccc2[nH]c3c(c2c1)CN(Cc1ccc(F)cc1)CC3 [Compound 8]
6. O=C(NC1CCN(S(=O)(=O)c2cccnc2)CC1)c1ccc2[nH]c3c(c2c1)CN(Cc1ccc(C(F)(F)F)cc1)CC3 [Compound 22]

5.30 to 6.00
> 6.30
6.00 to 6.30
6.00 to 6.30
5.00 to 5.30
6.00 to 6.30

For reference, reported pEC50 for N#Cc1ccc(CN2CCC(NC(=O)c3ccc4[nH]c5c(c4c3)CN(Cc3ccc(F)cc3)CC5)CC2)cc1 [Compound 9] stands at > 6.30
